Known self-aminoacylation of a selection of sequences
Test system: biotinyl-Leu-oxazolone
METHOD DESCRIPTION: self-aminoacylation, catalytic enhancement (BLO) (fold over background); higher = more active; k-Seq, kA / k0A0; sequences stand for … in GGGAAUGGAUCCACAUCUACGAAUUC…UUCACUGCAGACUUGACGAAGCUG
This sample holds only a part of the variants without activity.

{"INPUT SEQUENCE": "GUUCACCUAGGACAUCGGGUG [Fam2.2 aminoacylation ribozyme variant]", "self-aminoacylation": 4.61}
{"INPUT SEQUENCE": "AAGGUUGCUAAUAGUGGCAAG [Fam3.1 aminoacylation ribozyme variant]", "self-aminoacylation": 0.977}
{"INPUT SEQUENCE": "AUUUCGCUGGUCAUCGAGUGA [Fam2.1 aminoacylation ribozyme variant]", "self-aminoacylation": 5.38}
{"INPUT SEQUENCE": "CCACACAUCAAGCAAUCGGCC [Fam1B.1 aminoacylation ribozyme variant]", "self-aminoacylation": 2.25}
{"INPUT SEQUENCE": "CCACACUUAAAGCAAUCGGUG [Fam1B.1 aminoacylation ribozyme variant]", "self-aminoacylation": 4.31}
{"INPUT SEQUENCE": "CAACACUUCAAGCAAACGGUC [Fam1B.1 aminoacylation ribozyme variant]", "self-aminoacylation": 0.68}
{"INPUT SEQUENCE": "AUUACCCUGAUCAUCGAGUGA [Fam2.1 aminoacylation ribozyme variant]", "self-aminoacylation": 7.82}
{"INPUT SEQUENCE": "AUUCCCCUGGACAUCGAGUGA [Fam2.1 aminoacylation ribozyme variant]", "self-aminoacylation": 6.77}
{"INPUT SEQUENCE": "AUUCACAUAGGUCAUCAGGUG [Fam2.2 aminoacylation ribozyme variant]", "self-aminoacylation": 1.63}

Each recorded value in this set is attributed to the supplement of paper PMC9233669.
